Give pKi for every item shown.
target: Solute carrier family 22 member 1 (Rattus norvegicus, UniProt Q63089); experiment: TP_TRANSPORTER: inhibition of TEA uptake in Xenopus laevis oocytes
Sequence (Q63089 whole entry): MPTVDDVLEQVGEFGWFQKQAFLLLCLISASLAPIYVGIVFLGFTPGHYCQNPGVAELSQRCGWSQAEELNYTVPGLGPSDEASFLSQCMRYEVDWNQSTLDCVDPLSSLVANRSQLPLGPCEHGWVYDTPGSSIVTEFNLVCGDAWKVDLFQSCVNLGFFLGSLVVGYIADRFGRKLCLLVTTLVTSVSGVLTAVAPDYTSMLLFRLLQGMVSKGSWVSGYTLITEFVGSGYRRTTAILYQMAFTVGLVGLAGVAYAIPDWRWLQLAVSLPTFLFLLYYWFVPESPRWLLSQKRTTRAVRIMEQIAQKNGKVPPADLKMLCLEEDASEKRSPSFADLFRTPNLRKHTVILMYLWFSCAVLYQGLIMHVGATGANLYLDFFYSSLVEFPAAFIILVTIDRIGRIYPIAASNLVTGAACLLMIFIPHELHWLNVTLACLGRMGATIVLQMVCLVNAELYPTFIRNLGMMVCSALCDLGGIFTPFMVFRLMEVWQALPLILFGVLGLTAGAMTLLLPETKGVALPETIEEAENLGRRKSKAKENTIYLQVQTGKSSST
Value format note: pKi is -log10 of concentration (mol/L); just state the number.

Entry CC[n+]1c(CC2C=C(C)N=C(c3ccccc3)N2C)ccc2ccccc21 (stereo not given) [Cyanine-863] — recorded pKi = 6.89

Entry CNC(=O)c1cccnc1 [NICOTINYL METHYLAMIDE] — recorded pKi = 3.00

Entry COc1cc(C(O)CNC(C)C)ccc1O (stereo not given) [METIPRENALINE] — recorded pKi = 4.37
